System: Mycobacterium tuberculosis
Assay: Antimycobacterial activity against Mycobacterium tuberculosis H37Rv ATCC 27294 assessed as reduction in bacterial growth by microplate alamar blue assay
Assay type: functional
Measured MIC, listed per entry for reference.
Form field: result (number plus unit)

Study these solved cases before continuing.
molecule	obs_value
C/C=C/C[C@@H]1NC(=O)[C@H](CC(C)C)N2C=C(C)C[C@@H](C2=O)N(C)C(=O)[C@H](C)NC(=O)[C@H](Cc2ccc(O)c([N+](=O)[O-])c2)NC(=O)[C@H](CC(C)C)N(C)C(=O)[C@H](Cc2cn(C(C)(C)[C@H](O)CBr)c3ccccc23)NC1=O	0.003 µM
C/C=C/C[C@@H]1NC(=O)[C@H](CC(C)C)N2C(=O)[C@H](CC(C)[C@H]2O)N(C)C(=O)[C@H](C)NC(=O)[C@H](Cc2ccc(O)c([N+](=O)[O-])c2)NC(=O)[C@H](CC(C)C)N(C)C(=O)[C@H](Cc2cn(C(C)(C)[C@H]3CO3)c3ccccc23)NC1=O (mixture of isomers)	0.019 µM
C/C=C/C[C@@H]1NC(=O)[C@H](CC(C)C)N2C(=O)[C@H](CC(C)[C@H]2OC)N(C)C(=O)[C@H](C)NC(=O)[C@H](Cc2ccc(O)c([N+](=O)[O-])c2)NC(=O)[C@H](CC(C)C)N(C)C(=O)[C@H](Cc2cn(C(C)(C)[C@H](O)CCl)c3ccccc23)NC1=O (stereo not given in full)	0.005 µM
C/C=C/C[C@@H]1NC(=O)[C@H](CC(C)C)N2C=C(C)C[C@@H](C2=O)N(C)C(=O)[C@H](C)NC(=O)[C@H](Cc2ccc(O)c([N+](=O)[O-])c2)NC(=O)[C@H](CC(C)C)N(C)C(=O)[C@H](Cc2cn(C(C)(C)[C@H](O)CCl)c3ccccc23)NC1=O	0.019 µM
C/C=C/C[C@@H]1NC(=O)[C@H](CC(C)C)N2C(=O)[C@H](CC(C)[C@H]2OC)N(C)C(=O)[C@H](C)NC(=O)[C@H](Cc2ccc(OC)c([N+](=O)[O-])c2)NC(=O)[C@H](CC(C)C)N(C)C(=O)[C@H](Cc2cn(C(C)(C)[C@H](O)COC)c3ccccc23)NC1=O (stereo not given in full)	0.023 µM

For the molecule `C/C=C/C[C@@H]1NC(=O)[C@H](CC(C)C)N2C=C(C)C[C@@H](C2=O)N(C)C(=O)[C@H](C)NC(=O)[C@H](Cc2ccc(O)c(NC(=O)CCl)c2)NC(=O)[C@H](CC(C)C)N(C)C(=O)[C@H](Cc2cn(C(C)(C)[C@H](O)CCl)c3ccccc23)NC1=O` , report MIC.
0.098 µM

For the molecule `C/C=C/C[C@@H]1NC(=O)[C@H](CC(C)C)N2C(=O)[C@H](C[C@H](C)[C@H]2OCC)N(C)C(=O)[C@H](C)NC(=O)[C@H](Cc2ccc(O)c([N+](=O)[O-])c2)NC(=O)[C@H](CC(C)C)N(C)C(=O)[C@H](Cc2cn(C(C)(C)[C@H](O)CCl)c3ccccc23)NC1=O` , report MIC.
0.005 µM

For the molecule `C/C=C/C[C@@H]1NC(=O)[C@H](CC(C)C)N2C=C(C)C[C@@H](C2=O)N(C)C(=O)[C@H](C)NC(=O)[C@H](Cc2ccc(O)c([N+](=O)[O-])c2)NC(=O)[C@H](CC(C)C)N(C)C(=O)[C@H](Cc2cn(C(C)(C)[C@H]3CO3)c3ccccc23)NC1=O` , report MIC.
0.003 µM

For the molecule C/C=C/C[C@@H]1NC(=O)[C@H](CC(C)C)N2C(=O)[C@H](CC(C)[C@H]2O)N(C)C(=O)[C@H](C)NC(=O)[C@H](Cc2ccc(OC)c([N+](=O)[O-])c2)NC(=O)[C@H](CC(C)C)N(C)C(=O)[C@H](Cc2cn(C(C)(C)[C@H]3CO3)c3ccccc23)N(C)C1=O (stereo not given in full) , report MIC.
0.054 µM

For the molecule C/C=C/C[C@@H]1NC(=O)[C@H](CC(C)C)N2C(=O)[C@H](CC(C)[C@H]2OC)N(C)C(=O)[C@H](C)NC(=O)[C@H](Cc2ccc(O)c([N+](=O)[O-])c2)NC(=O)[C@H](CC(C)C)N(C)C(=O)[C@H](Cc2cn(C(C)(C)[C@H](O)COC)c3ccccc23)NC1=O (stereo not given in full) , report MIC.
0.008 µM

For the molecule NNC(=O)c1ccncc1 [ISONIAZID] , report MIC.
0.46 µM
